Species: Cavia porcellus
assay-protocol: In vitro activity in guinea pig atria was measured as the peak force of contraction (F) of a stimulated left atrium
Assay type: functional
stated-conditions: Cardiac atrium
Please respond with rule met when measured EC75 is strictly beneath 20 µM, and with rule not met in all other cases.

[
  {
    "molecule": "CCC1(C)C2CN(CC3CCCCC3)CC1CN(CC1CCCCC1)C2 (configuration not stated)",
    "assigned-category": "rule met"
  },
  {
    "molecule": "CCCCCCN1CC2CC(CN(C)C2)C1",
    "assigned-category": "rule not met"
  },
  {
    "molecule": "CCCC1(C)C2CN(C(C)C)CC1CN(C(C)C)C2 (configuration not stated)",
    "assigned-category": "rule not met"
  },
  {
    "molecule": "C=CCCN1CC2CN(CCC=C)CC(C1)C2(C)C",
    "assigned-category": "rule not met"
  },
  {
    "molecule": "CCCCC1(CCCC)C2CN(CC3CCCCC3)CC1CN(C(C)C)C2",
    "assigned-category": "rule met"
  },
  {
    "molecule": "CC(C)CN1CC2CN(C(C)C)CC(C1)C21CCCCC1",
    "assigned-category": "rule not met"
  },
  {
    "molecule": "CCCCN1CC2CN(CCCC)CC(C1)C2(CCCC)CCCC",
    "assigned-category": "rule met"
  },
  {
    "molecule": "CCCC1(CCC)C2CN(C(C)C)CC1CN(C(C)C)C2",
    "assigned-category": "rule not met"
  },
  {
    "molecule": "C1CCC(CN2CC3CN(CC4CCCCC4)CC(C2)C32CCCCC2)CC1",
    "assigned-category": "rule met"
  },
  {
    "molecule": "CCCCN1CC2CN(CCCC)CC(C1)C2(C)CC (configuration not stated)",
    "assigned-category": "rule met"
  },
  {
    "molecule": "CCCCCCN1CC2CN(CCCCCC)CC(C1)C21CCCC1",
    "assigned-category": "rule met"
  },
  {
    "molecule": "CCCCCCCCCCN1CC2CN(CCCCCCCCCC)CC(C1)C2(C)C",
    "assigned-category": "rule not met"
  },
  {
    "molecule": "CCCCN1CC2CN(CCCC)CC(C1)C21CCC1",
    "assigned-category": "rule not met"
  },
  {
    "molecule": "C=CCN1CC2CN(CC=C)CC(C1)C2(C)C",
    "assigned-category": "rule not met"
  },
  {
    "molecule": "C=CCCN1CC2CN(CCCC)CC(C1)C2(C)C",
    "assigned-category": "rule not met"
  },
  {
    "molecule": "C=CCCN1CC2CN(CC(C)C)CC(C1)C2(CCC)CCC",
    "assigned-category": "rule not met"
  },
  {
    "molecule": "C=CCCN1CC2CN(CCC=C)CC(C1)C21CCCCC1",
    "assigned-category": "rule not met"
  },
  {
    "molecule": "CCCCN1CC2CN(CC3CCCCC3)CC(C1)C2(C)C",
    "assigned-category": "rule met"
  },
  {
    "molecule": "CCCCCCN1CC2CN(C)CC(C1)C2(CC)CC",
    "assigned-category": "rule met"
  },
  {
    "molecule": "C1CCC2(C1)C1CN(CC3CC3)CC2CN(CC2CC2)C1",
    "assigned-category": "rule not met"
  },
  {
    "molecule": "CCCCCCN1CC2CN(CCCCCC)CC(C1)C2(CC)CCCC (configuration not stated)",
    "assigned-category": "rule met"
  },
  {
    "molecule": "CCCCN1CC2CN(CCCC)CC(C1)C2(C)C",
    "assigned-category": "rule not met"
  }
]

Origin of measurements: ChEMBL document CHEMBL1131456
